# System: Hepatitis C virus
# assay-notes: Antiviral activity against HCV genotype 1b subgenomic replicon infected in human HuH7 clone B cells assessed as inhibition of viral RNA replication after 5 days by RT-PCR method
# Format: functional, organism-based, Hepacivirus hominis
# experimental-conditions: subtype 1b, Huh-7, 120 h
quantity-name: EC90 (nM)
Hi! Could you send only the number? It should be in nM, unit omitted.

[Q] # input compound: CC(C)OC(=O)[C@H](C)NP(=O)(OC[C@H]1O[C@@H](n2ccc(=O)[nH]c2=O)[C@](F)(Br)[C@@H]1O)Oc1ccccc1 (mixture of isomers) ; wanted: its EC90
[A] 2000

[Q] Can you share its EC90? I mean this compound: CC(C)OC(=O)[C@H](C)N[P@](=O)(OC[C@H]1O[C@@H](n2ccc(=O)[nH]c2=O)[C@](C)(F)[C@@H]1O)Oc1ccccc1
[A] 370

====

# System: PBMC
# assay-notes: Cytotoxicity against human PBMC after 6 days by trypan blue exclusion method
# Type: cell-based
# experimental-conditions: pbmc, 144 h
quantity-name: CC50

[Q] GET /values?readout=CC50&item= CC(C)OC(=O)[C@H](C)NP(=O)(OC[C@H]1O[C@@H](n2ccc(N)nc2=O)[C@](F)(Cl)[C@@H]1O)Oc1ccccc1 (mixture of isomers)
[A] > 100 µM

[Q] # get_value(readout='CC50', item= Nc1nc2c(ncn2[C@@H]2O[C@H](CO)[C@@H](O)[C@@]2(F)Cl)c(=O)[nH]1 )
[A] > 100 µM

[Q] Which value of CC50 has been reported for Nc1ncnc2c1ncn2[C@@H]1O[C@H](CO)[C@@H](O)[C@@]1(F)Br in the records?
[A] > 100 µM

[Q] Record request: CC50 value, item O=c1ccn([C@@H]2O[C@H](CO)[C@@H](O)[C@@]2(F)Br)c(=O)[nH]1
[A] > 100 µM

[Q] Tell me the measured CC50 of Nc1ncnc2c1ncn2[C@@H]1O[C@H](CO)[C@@H](O)[C@@]1(F)Cl , please.
[A] > 100 µM

[Q] I have this compound here, CC(C)OC(=O)[C@H](C)NP(=O)(OC[C@H]1O[C@@H](n2cnc3c(N)ncnc32)[C@](F)(Br)[C@@H]1O)Oc1ccccc1 (mixture of isomers) , and I need its recorded CC50.
[A] 19 µM

[Q] Would you mind telling me what CC50 value was observed for CC(C)OC(=O)[C@H](C)NP(=O)(OC[C@H]1O[C@@H](n2ccc(=O)[nH]c2=O)[C@](F)(Cl)[C@@H]1O)Oc1ccccc1 (mixture of isomers) ?
[A] > 100 µM

[Q] // query CC50 value for entry CC(C)OC(=O)[C@H](C)NP(=O)(OC[C@H]1O[C@@H](n2cnc3c(N)ncnc32)[C@](F)(Cl)[C@@H]1O)Oc1ccccc1 (mixture of isomers)
[A] 26 µM

====

# assay-notes: Cytotoxicity against human CEM cells after 6 days by trypan blue exclusion method
# Type: cell-based, CCRF-CEM
# experimental-conditions: CEM cells
quantity-name: CC50 at 144 h

[Q] For CC(C)OC(=O)[C@H](C)N[P@](=O)(OC[C@H]1O[C@@H](n2ccc(=O)[nH]c2=O)[C@](C)(F)[C@@H]1O)Oc1ccccc1 , what is its reported CC50 at 144 h?
[A] > 100 µM
